The measured values listed here are drawn from paper PMC5310922.

- measurement_notes: HEK293T 72 h cytotoxicity (CellTiter-Glo)
- Assay type: cell-based, human
- condition_info: human
Overview of reported CC50 at 72 h across a group of compounds:
Use µM as the unit, but write only the number.

CCOc1ccc2cc(-c3nn(CC4CCN(C)CC4)c4ncnc(N)c34)ccc2c1: 12.4

Please examine the following record next.
[ask] Note down CC50 at 72 h recorded for `O=c1[nH]c(=O)n([C@H]2C[C@H](O)[C@@H](CO)O2)cc1F`
[reply] 0.0471

* * *

- measurement_notes: in vitro
- condition_info: human
- Experimental: Cells were then plated (5 μL/well) into 1536-well assay plates at a density of 5.5×10^5 cells/mL (2,750 cells/well). Plates were then washed twice with phosphate buffered saline (PBS). […] To prevent non-specific binding, the cells were blocked with SuperBlock™ T20 blocking agent (Thermo) for 1 h at room temperature. […] Images were processed by the HCS Studio Scan software, and Selected Object Count (HCT-8 cells) and Spot Count (Cryptosporidium) were analyzed in Genedata Screener (v13.0-Standard). […]
Overview of reported CC50 at 48 h across a group of molecules:

[ask] Note down CC50 at 48 h recorded for `CCOc1ccc2cc(-c3nn(CC4CCN(C)CC4)c4ncnc(N)c34)ccc2c1`
[reply] > 12.5 µM

[ask] Note down CC50 at 48 h recorded for `O=c1[nH]c(=O)n([C@H]2C[C@H](O)[C@@H](CO)O2)cc1F`
[reply] 0.154 µM

[ask] Note down CC50 at 48 h recorded for CC[C@@]1([C@@H]2O[C@@H]([C@H]3O[C@@](O)(CO)[C@H](C)C[C@@H]3C)C[C@@H]2C)CC[C@H]([C@]2(C)CC[C@]3(C[C@H](O)[C@@H](C)[C@@H]([C@@H](C)[C@@H](OC)[C@H](C)C(=O)O)O3)O2)O1 [Monensin sodium]
[reply] > 12.5 µM

* * *

- Tested on: Cryptosporidium parvum
- measurement_notes: C. parvum proliferation in HCT-8 cells, 48 h high-content imaging assay
- Assay type: cell-based, Cryptosporidium parvum (Iowa strain)
- condition_info: Cryptosporidium parvum; in HCT-8 cells, 48 h; value (SD; n); read-out: C. parvum 48H Assay EC50 [µM] (SD; n)
observable: log10 of EC50 (log10 of the value in µM)
Short version: log10 scale, EC50, µM.

Please review the following examples before continuing.
Oc1ccc(Cl)cc1NC(S)NC(O)c1cccc(Br)c1 (stereo not shown): -0.56
CCOc1ccc2cc(-c3nn(CC4CCN(C)CC4)c4ncnc(N)c34)ccc2c1: -0.41
CC(C)/N=c1\cc2n(-c3ccc(Cl)cc3)c3ccccc3nc-2cc1Nc1ccc(Cl)cc1: -1.83

[ask] Note down log10 of EC50 recorded for Cn1c2ccccc2c2c3c(c4c5ccccc5n(CCC#N)c4c21)CNC3O (stereo not shown)
[reply] -2.61

[ask] Note down log10 of EC50 recorded for COc1cc(Nc2ncc(F)c(Nc3ccc4c(n3)NC(O)C(C)(C)O4)n2)cc(OC)c1OC (stereo not shown)
[reply] -0.60

[ask] Note down log10 of EC50 recorded for `O=c1[nH]c(=O)n([C@H]2C[C@H](O)[C@@H](CO)O2)cc1F`
[reply] -1.76

[ask] Note down log10 of EC50 recorded for CC[C@@]1([C@@H]2O[C@@H]([C@H]3O[C@@](O)(CO)[C@H](C)C[C@@H]3C)C[C@@H]2C)CC[C@H]([C@]2(C)CC[C@]3(C[C@H](O)[C@@H](C)[C@@H]([C@@H](C)[C@@H](OC)[C@H](C)C(=O)O)O3)O2)O1 [Monensin sodium]
[reply] -2.15

* * *

Overview of reported CC50 at 72 h across a group of molecules:
- measurement_notes: HEK293T 72 h cytotoxicity (CellTiter-Glo)
- Type: cell-based, human
- condition_info: human, HEK293T cells; 72 h; value (SD; n); read-out: HEK293T 72H Cytotoxicity CC50 [µM] (SD; n)
- Experimental: Two mammalian cell lines were used for counter-screening for general cytotoxicity of hit compounds: human embryonic kidney cells (HEK293T; ATCC CRL-3216) and human hepatocellular carcinoma cells (HepG2; ATCC HB-8065). […] After a 5 min incubation at room temperature, luminescence readings were measured with an EnVision Multilabel Plate Reader (Perkin Elmer). […] were uploaded into Genedata Screener (v13.0-Standard), and data normalized to DMSO- and puromycin-treated wells. […]

Please review the following examples before continuing.
Oc1ccc(Cl)cc1NC(S)NC(O)c1cccc(Br)c1 (stereo not drawn): > 20 µM
Cc1csc(NCC(O)c2c[nH]c3ccccc23)n1 (stereo not drawn): > 20 µM
CC(C)/N=c1\cc2n(-c3ccc(Cl)cc3)c3ccccc3nc-2cc1Nc1ccc(Cl)cc1: > 20 µM
OC1CCCC2Nc3nonc3NC(c3ccc(Cl)cc3Cl)C12 (stereo not drawn): > 20 µM
COc1cc(Nc2ncc(F)c(Nc3ccc4c(n3)NC(O)C(C)(C)O4)n2)cc(OC)c1OC (stereo not drawn): > 20 µM

Please examine the following record next.
[ask] Note down CC50 at 72 h recorded for Cn1c2ccccc2c2c3c(c4c5ccccc5n(CCC#N)c4c21)CNC3O (stereo not drawn)
[reply] 0.124 µM

* * *

- measurement_notes: HCT-8 host cell cytotoxicity, 48 h (nuclei count)
- condition_info: human, HCT-8 cells
- Procedure: Cells were then plated (5 μL/well) into 1536-well assay plates at a density of 5.5×10^5 cells/mL (2,750 cells/well). Plates were then washed twice with phosphate buffered saline (PBS). […] To prevent non-specific binding, the cells were blocked with SuperBlock™ T20 blocking agent (Thermo) for 1 h at room temperature. […] Images were processed by the HCS Studio Scan software, and Selected Object Count (HCT-8 cells) and Spot Count (Cryptosporidium) were analyzed in Genedata Screener (v13.0-Standard). […]
Overview of reported CC50 at 48 h across a group of molecules:

Please review the following examples before continuing.
Cc1csc(NCC(O)c2c[nH]c3ccccc23)n1 (stereo not drawn): > 12.5 µM
COc1cc(Nc2ncc(F)c(Nc3ccc4c(n3)NC(O)C(C)(C)O4)n2)cc(OC)c1OC (stereo not drawn): > 12.5 µM
Cn1c2ccccc2c2c3c(c4c5ccccc5n(CCC#N)c4c21)CNC3O (stereo not drawn): > 12.5 µM

[ask] Note down CC50 at 48 h recorded for OC1CCCC2Nc3nonc3NC(c3ccc(Cl)cc3Cl)C12 (stereo not drawn)
[reply] > 12.5 µM

[ask] Note down CC50 at 48 h recorded for Oc1ccc(Cl)cc1NC(S)NC(O)c1cccc(Br)c1 (stereo not drawn)
[reply] > 12.5 µM

[ask] Note down CC50 at 48 h recorded for `CC(C)/N=c1\cc2n(-c3ccc(Cl)cc3)c3ccccc3nc-2cc1Nc1ccc(Cl)cc1`
[reply] > 12.5 µM

* * *

- measurement_notes: HepG2 72 h cytotoxicity (CellTiter-Glo)
- Assay type: cell-based, human
- condition_info: human, HepG2 cells; 72 h; value (SD; n); read-out: HepG2 72H Cytotoxicity CC50 [µM] (SD; n)
observable: CC50 at 72 h

OC1CCCC2Nc3nonc3NC(c3ccc(Cl)cc3Cl)C12 (stereo not drawn) [GHCDL-1]: > 20 µM
COc1cc(Nc2ncc(F)c(Nc3ccc4c(n3)NC(O)C(C)(C)O4)n2)cc(OC)c1OC (stereo not drawn) [R406]: 0.596 µM

[ask] Note down CC50 at 72 h recorded for Cn1c2ccccc2c2c3c(c4c5ccccc5n(CCC#N)c4c21)CNC3O (stereo not drawn) [Gö 6976]
[reply] > 20 µM

[ask] Note down CC50 at 72 h recorded for Oc1ccc(Cl)cc1NC(S)NC(O)c1cccc(Br)c1 (stereo not drawn) [NSC215721]
[reply] > 20 µM

[ask] Note down CC50 at 72 h recorded for CC(C)/N=c1\cc2n(-c3ccc(Cl)cc3)c3ccccc3nc-2cc1Nc1ccc(Cl)cc1 [Clofazimine]
[reply] > 20 µM

[ask] Note down CC50 at 72 h recorded for Cc1csc(NCC(O)c2c[nH]c3ccccc23)n1 (stereo not drawn) [GHCDL-2]
[reply] > 20 µM
